The reported measurements were obtained from patent US20140004128A1.

# IC50, IFNγ release KG-1 cell assay, human IL-18 values compiled below
target: recombinant human IL-18 (human, UniProt Q14116 37-193); experiment: cell-based or functional assay
Expressed in nM, but write only the number.

INSERT INTO assay_data (binder, numeric_value) VALUES
  ('Antibody 5 IgG2 (antibody, V domains shown) VH: QVQLQQSGPRLVKPSQTLSLTCTVSGGSISSGGYYWSWIRQPAGKGLEWIGSIYYSGSTYYNPSLKSRVTISGDTPKNQFSLKLSSVTAADTAVYYCARTPAYDGDARADFFDVWGRGTLVTVSS VL: DIVMTQSPSTLSASVGDRVTITCRASQGISSWLAWYQQKPGRAPKVLIYKASTLESGVPSRFSGSGSGTDFTLTISSLQPEDFATYYCQQSLIPQWDFGQGTKLEIK', 5.4);

Please examine the following record next.
Ask: // returns reported IC50, IFNγ release KG-1 cell assay, human IL-18 for input Antibody 4 IgG2 (antibody, V domains shown) VH: QVQLQQSGPRLVKPSQTLSLTCTVSGGSISSGGYYWSWIRQPAGKGLEWIGSIYYSGSTYYNPSLKSRVTISGDTPKNQFSLKLSSVTAADTAVYYCARTPAYDGDARADFFDVWGRGTLVTVSS VL: DIVMTQSPSTLSASVGDRVTITCRASQGISSWLAWYQQKPGRAPKVLIYKASTLESGVPSRFSGSGSGTDFTLTISSLQPEDFATYYCQQSHHPNWDFGQGTKLEIK
Reply: 6.6
